- measured-on: CB1 receptors expressed in CHO cells (Homo sapiens, UniProt P21554)
- Sequence (P21554 whole entry): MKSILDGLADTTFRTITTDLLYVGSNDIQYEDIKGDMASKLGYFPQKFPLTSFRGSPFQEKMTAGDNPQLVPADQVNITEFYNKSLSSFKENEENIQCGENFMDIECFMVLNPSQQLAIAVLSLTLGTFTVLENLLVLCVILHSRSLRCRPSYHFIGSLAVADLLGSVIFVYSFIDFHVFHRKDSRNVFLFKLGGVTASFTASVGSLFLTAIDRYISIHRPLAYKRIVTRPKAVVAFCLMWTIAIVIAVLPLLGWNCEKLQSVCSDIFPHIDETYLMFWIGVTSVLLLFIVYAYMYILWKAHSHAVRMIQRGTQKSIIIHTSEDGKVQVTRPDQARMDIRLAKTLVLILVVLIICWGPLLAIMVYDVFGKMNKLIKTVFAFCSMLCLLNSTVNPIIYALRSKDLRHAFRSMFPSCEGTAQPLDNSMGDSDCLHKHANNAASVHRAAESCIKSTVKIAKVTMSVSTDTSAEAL
- method: forskolin-stimulated cAMP production / adenylate cyclase inhibition, CB1
readout: IC50 (nM)
Answers are plain numbers, in nM.

Entry COc1cccc2c(C(=O)c3ccc(Br)c4ccccc34)c(C)n(CCN3CCOCC3)c12 , IC50 reported as 1000

---

- measured-on: peripheral human cannabinoid receptors (CB2) (Homo sapiens, UniProt P34972)
- Construct: expressed in transfected cells; host or cells: cell line expressing CB2 (probably CHO; the print may tie CHO to CB1 only)
- Sequence (P34972 whole entry): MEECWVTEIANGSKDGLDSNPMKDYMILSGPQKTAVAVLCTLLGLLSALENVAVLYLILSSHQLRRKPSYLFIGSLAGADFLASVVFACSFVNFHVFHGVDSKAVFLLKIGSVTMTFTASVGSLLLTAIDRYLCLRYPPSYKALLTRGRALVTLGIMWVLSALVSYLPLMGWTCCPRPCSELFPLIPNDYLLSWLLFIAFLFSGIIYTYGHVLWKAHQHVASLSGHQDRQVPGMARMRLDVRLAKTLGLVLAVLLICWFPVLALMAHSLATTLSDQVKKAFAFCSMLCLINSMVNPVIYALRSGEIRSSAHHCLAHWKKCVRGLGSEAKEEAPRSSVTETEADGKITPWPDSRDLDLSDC
- method: affinity binding test, membranes from cell lines expressing CB2
- conditions: in vitro binding; read-out: affinity for the CB2 receptor
readout: pKi
One number for each entry, as −log10 of the molar value.

Notebook: COc1cccc2c(C(=O)c3ccc(Br)c4ccccc34)c(C)n(CCN3CCOCC3)c12 [Compound 22] , pKi read as 8.74

---

- measured-on: central human receptors (CB1) (Homo sapiens, UniProt P21554)
- Sequence (P21554 whole entry): as the sequence (P21554 whole entry) above
readout: Ki

Memo: COc1cccc2c(C(=O)c3ccc(Br)c4ccccc34)c(C)n(CCN3CCOCC3)c12 , reported Ki: > 1 µM
